Data origin: patent US12643903B2

# tested system: EGFR LTC (Homo sapiens, UniProt P00533, C797S/L858R/T790M)
# Construct: expressed in transfected cells; host or cells: BaF3
# Sequence (P00533 25-1210 T790M/C797S/L858R): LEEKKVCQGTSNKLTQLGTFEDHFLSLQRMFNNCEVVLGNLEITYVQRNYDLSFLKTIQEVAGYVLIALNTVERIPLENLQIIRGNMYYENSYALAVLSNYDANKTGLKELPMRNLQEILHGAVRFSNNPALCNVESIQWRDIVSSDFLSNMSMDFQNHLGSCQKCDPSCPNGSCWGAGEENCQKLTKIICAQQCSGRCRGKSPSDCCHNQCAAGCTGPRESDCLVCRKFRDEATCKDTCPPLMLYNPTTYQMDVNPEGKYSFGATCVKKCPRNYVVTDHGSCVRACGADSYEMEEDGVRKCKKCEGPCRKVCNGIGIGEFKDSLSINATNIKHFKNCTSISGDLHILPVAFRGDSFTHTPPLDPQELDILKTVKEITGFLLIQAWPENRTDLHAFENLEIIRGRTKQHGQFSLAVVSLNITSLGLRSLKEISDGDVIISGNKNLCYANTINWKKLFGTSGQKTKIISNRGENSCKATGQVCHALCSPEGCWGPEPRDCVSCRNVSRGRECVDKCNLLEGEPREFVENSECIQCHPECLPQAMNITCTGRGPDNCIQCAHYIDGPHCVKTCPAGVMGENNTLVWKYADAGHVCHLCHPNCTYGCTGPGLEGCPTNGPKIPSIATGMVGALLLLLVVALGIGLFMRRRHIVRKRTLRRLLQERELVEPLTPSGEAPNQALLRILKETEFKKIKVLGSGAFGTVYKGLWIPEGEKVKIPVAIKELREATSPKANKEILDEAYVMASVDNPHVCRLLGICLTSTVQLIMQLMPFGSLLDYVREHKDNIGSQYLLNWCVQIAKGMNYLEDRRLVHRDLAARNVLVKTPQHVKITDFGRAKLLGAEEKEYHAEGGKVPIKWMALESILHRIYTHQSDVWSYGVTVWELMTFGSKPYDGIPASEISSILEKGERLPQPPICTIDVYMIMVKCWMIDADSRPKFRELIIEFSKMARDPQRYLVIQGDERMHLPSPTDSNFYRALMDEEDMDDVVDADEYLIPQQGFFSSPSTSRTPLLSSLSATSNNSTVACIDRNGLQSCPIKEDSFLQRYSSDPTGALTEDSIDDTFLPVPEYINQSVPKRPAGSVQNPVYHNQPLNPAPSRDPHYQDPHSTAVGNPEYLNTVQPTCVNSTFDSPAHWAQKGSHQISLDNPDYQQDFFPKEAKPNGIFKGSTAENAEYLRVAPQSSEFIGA
# assay protocol: Cell Degradation 3: EGFR degradation in BaF3 cells (LTC), HTRF assay
# Format: cell-based
# condition description: 16 h treatment, EGFR degradation by HTRF
property label: DC50 (nM)

# compound, DC50 / nM
rows = [
    ("COc1cc(N2CCC(N3CCN(C(=O)C4CCN(c5cc(F)c(C6CCC(=O)NC6=O)c(F)c5)C4)CC3)CC2)c(C)cc1Nc1ncc(Br)c(Nc2cccc3c2N(S(C)(=O)=O)CC3)n1 (stereo not drawn)", 19),
    ("CS(=O)(=O)N1CCc2cccc(Nc3nc(Nc4ccc(N5CCC(N6CCN(CCCC7CN(c8ccc9c(c8)C(=O)N(C8CCC(=O)NC8=O)C9=O)C7)CC6)CC5)c(F)c4)nc4[nH]ccc34)c21 (stereo not drawn)", 24.2),
    ("CS(=O)(=O)N1CCc2cccc(Nc3nc(Nc4ccc(N5CCC(N6CCN(CCc7ccc(C8CCC(=O)NC8=O)c(F)c7)CC6)CC5)c(F)c4)nc4[nH]ccc34)c21 (stereo not drawn)", 19.9),
]
